Would you kindly list viability at 28.5 h, 10 µM for each of these compounds?
Experiment: in vitro
Settings: human, hela cells, % viability
Answers are plain numbers, in %.

Completed entries (count: 5):
- compound: "CC(=O)Nc1ccc(CN[C@@H]2CCC[C@H]2Cc2cc(C)no2)cc1"
  viability at 28.5 h, 10 µM, %: 102
- compound: "CC(=O)Nc1ccc(N(CC(O)Cn2c3ccccc3c3ccccc32)S(C)(=O)=O)cc1 (centres unmarked)"
  viability at 28.5 h, 10 µM, %: 96.7
- compound: "O=S(=O)(NC(c1c[nH]c2ccccc12)C(Cl)(Cl)Cl)c1ccccc1 (centres unmarked)"
  viability at 28.5 h, 10 µM, %: 91.7
- compound: "C=CCn1c2cc(C)sc2c2cnn(CC(=O)NC(C)C)c(=O)c21"
  viability at 28.5 h, 10 µM, %: 89
- compound: "Cc1ccc(-c2nnc(CNC(=O)c3cccc(F)c3F)o2)s1"
  viability at 28.5 h, 10 µM, %: 91.1

I would be grateful if you could provide viability at 28.5 h, 10 µM for each of the following entries.
1. CC(C)(C)NC(=O)c1cccc(N2C(=O)c3ccc(C(=O)O)cc3C2=O)c1
2. COc1ccc(-c2nccnc2NCCCN(C)C)cc1
3. CCN(CC)C(=O)CN1CCN(c2nccnc2OC)CC1

1. 86.8
2. 93.9
3. 83.9

I would be grateful if you could provide viability at 28.5 h, 10 µM for each of the following entries.
1. OCC1CCCN1c1cncc(-c2ccc3c(c2)OCO3)n1 (centres unmarked)
2. Cc1nnc(NS(=O)(=O)c2ccc(Br)cc2)s1
3. CC(C)c1ccc(Cc2cnc(NC(=O)c3cc(Br)cs3)s2)cc1
4. COc1ccc(S(=O)(=O)Nc2ccc(C(=O)O)c(O)c2)cc1[N+](=O)[O-]
5. Cn1nc(C2CCCC2)cc1[C@H]1CN2CC[C@H]1C[C@@H]2CNS(C)(=O)=O
6. O=C1c2ccccc2CN1c1cccc(Cl)c1Cl
7. O=C(CCc1cn2ccccc2n1)NCc1cc2n(n1)CCCNC2

1. 100
2. 101
3. 88.7
4. 95.7
5. 91.5
6. 82.3
7. 88.8

I would be grateful if you could provide viability at 28.5 h, 10 µM for each of the following entries.
1. COc1ccc(CCCN2CCC(C(=O)NC(=O)Nc3cc(OC)c(OC)c(OC)c3)CC2)cc1
2. COc1cccc2cc(C(=O)N3CCN(C4CCN(C)CC4)CC3)oc12
3. CCOc1ccc(-c2ccnc(C)n2)cc1C(=O)O
4. O=C(O)c1ccc(Cl)c(S(=O)(=O)Nc2ccc(I)cc2)c1
5. O=S(=O)(Oc1ccc(-c2cnc3ccccc3n2)cc1)c1ccccc1

1: 86.3; 2: 91.2; 3: 104; 4: 83.2; 5: 93.4

----------
Test: in vitro
Conditions: human, hela cells, % viability
readout-name: viability at 28.5 h, 10 µM (%)
Numbers only, in %.

- molecule: "O=C(Cn1cnnn1)N1CCc2ccccc2C1 [CBK200335]"
  measurement-units: "%"
  viability at 28.5 h, 10 µM: 101
- molecule: "COc1ccccc1CNC(=O)c1ccc(=O)[nH]c1 [CBK288133]"
  measurement-units: "%"
  viability at 28.5 h, 10 µM: 106

I would be grateful if you could provide viability at 28.5 h, 10 µM for each of the following entries.
1. O=[N+]([O-])c1ccccc1S(=O)(=O)N1CCN(c2ccccc2)CC1 [CBK261755]
2. CC(=O)Nc1cccc(NC(=O)N2CCN(Cc3ccccc3)CC2)c1 [CBK155643]
3. CCC(C)NC(=O)Cn1cccc2cc(C3CCCNC3)nc1-2 (stereo not drawn) [CBK285087]
4. COc1cc(/C=N\NC(=O)CSc2nc3ccccc3o2)ccc1O [CBK263630]
5. Cc1nc2c(c(=O)[nH]1)CN(Cc1ccc(Cl)cc1)CC2 [CBK282415]
6. CN(C(=O)C1CCN(Cc2cccc(C(F)(F)F)c2)CC1)C(c1ccc(F)cc1)c1ccccn1 (stereo not drawn) [CBK148409]
7. COc1ccc(C(=O)C2=C(O)C(=O)N(CCN3CCNCC3)C2c2ccc(Cl)c(Cl)c2)cc1 (stereo not drawn) [CBK264616]

85.8
98
98.2
86.5
84.5
95.7
95.1

----------
Experiment: in vitro
Conditions: human, hela cells, % viability
Lab note: anything with viability at 28.5 h, 10 µM below 90% is marked Y; values at 90% or higher are marked N.

Please check: viability at 28.5 h, 10 µM for CN(c1ncccc1C#N)C1CCN(CCC(N)=O)CC1 [CBK016793] , strictly under 90% or not?
Y

Please check: viability at 28.5 h, 10 µM for COc1cc(CNc2ccc(N3CCOCC3)cc2)ccc1OCc1ccc(Cl)cc1Cl [CBK074516] , strictly under 90% or not?
N

Please check: viability at 28.5 h, 10 µM for O=c1c2cc(Cl)ccc2sc2ncccc12 [CBK008118] , strictly under 90% or not?
N

Please check: viability at 28.5 h, 10 µM for COc1ccc(S(=O)(=O)N2CCC(C(=O)O)(c3ccccc3)CC2)cc1 [CBK267572] , strictly under 90% or not?
N

----------
Experiment: in vitro
Details: human, hela cells, % viability
readout-name: viability at 28.5 h, 10 µM (%)
Answers are plain numbers, in %.

I would be grateful if you could provide viability at 28.5 h, 10 µM for each of the following entries.
1. CCN(CC)CC(=O)Nc1ccccc1OC [CBK266213C]
2. CCCCN(C)c1c(CC)nc2ccc(C(=O)NCCN3CCCC3)cn12
3. Cn1cnc2cc(C(=O)N3CC(C(=O)N4CCN(c5ccccc5)CC4)C3)ccc21
4. CCOc1cc(/C=C2/SC(=S)N(c3cccc(C(F)(F)F)c3)C2=O)ccc1OCC(=O)O
5. Nc1ncn(Cc2ccccc2)c2nc(SCC(=O)O)nc1-2
6. CCC(c1nc2ccccc2c(=O)n1CCCn1ccnc1)N1C(=O)c2ccccc2C1=O (stereo not shown)

113
96.2
82.5
106
99.2
107

----------
Would you kindly list viability at 28.5 h, 10 µM for each of these compounds?
Assay: in vitro
Details: human, hela cells, % viability
Numbers only, in %.

Completed entries (count: 4):
- compound: "O=C(O)CCc1ccc(-c2cccs2)n1-c1cc(Cl)ccc1O [CBK131890]"
  endpoint-result: 104
- compound: "COc1ccc(C)cc1N1CCCN(c2cc(C)ccc2OC)C1=O [CBK006937]"
  endpoint-result: 84.8
- compound: "COCCNC(=O)c1ccc(-c2cc(C(C)C)ccc2OC)nc1N(C)C [CBK106061]"
  endpoint-result: 103
- compound: "O=C(c1cccc(-c2ccc(F)cc2)c1)N1CC(O)C1 [CBK281499]"
  endpoint-result: 100

I would be grateful if you could provide viability at 28.5 h, 10 µM for each of the following entries.
1. O=C(c1ccc2c(c1)N(Cc1ccc(F)cc1)C(=O)CO2)c1cccs1 [CBK286410]
2. O=C(NCc1ccc2c(c1)OCO2)c1cnc(-c2ccc(Cl)cc2)c(-c2ccco2)c1 [CBK037547]
3. CCn1nc(C)c(NC(=O)CN(C)Cc2ccccc2C(F)(F)F)c1C [CBK306771]
4. Cn1nc(-c2ccc(S(=O)(=O)Nc3nc(=O)[nH]cc3F)s2)cc1C(F)(F)F [CBK067574]

1. 92.3
2. 98.3
3. 106
4. 96.8

----------
System: CTL2-GFP (C. trachomatis L2/434/Bu, GFP-expressing)
Construct: L2/434/Bu, GFP-expressing
Experiment: microbe, parasite or virus in culture
Design: Intracellular C. trachomatis growth in HeLa cells, bulk GFP fluorescence relative to DMSO
Settings: Chlamydia trachomatis, HeLa, 28.5 h; bulk GFP, mean of 2; read-out: % of control remaining
Lab note: anything with activity at 1 µM below 90% is marked met; values at 90% or higher are marked not met.

Would you please look over these solved cases?
- compound: "O=C(O)c1[nH]c2ccccc2c1C(c1ccsc1)c1c(C(=O)O)[nH]c2ccccc12"
  label: "not met"
- compound: "Cc1cc2nc(-c3ccccn3)[nH]c2cc1C"
  label: "not met"
- compound: "COc1ccc(CC(=O)N2CCCC(c3nc(C)c4c(n3)N(CC3CC3)CCC4)C2)cc1 (stereo not drawn)"
  label: "not met"

Please check: activity at 1 µM for `CC1=NN(c2ccc(C)cc2)C(=O)/C1=C\Nc1ccc(S(=O)(=O)Nc2nc(C)cc(C)n2)cc1` , strictly under 90% or not?
met

Please check: activity at 1 µM for `CC1=NN(c2ccccc2)C(=O)/C1=C/Nc1ccc(S(=O)(=O)Nc2nc(C)cc(C)n2)cc1` , strictly under 90% or not?
met

Please check: activity at 1 µM for `O=C(O)c1cn(C2CC2)c2cc(N3CCN(C(=O)Cc4ccccc4Cl)CC3)c(F)cc2c1=O` , strictly under 90% or not?
not met

Hello, the source for this data is paper PMC12040169, in case you need it.
